Where do the numbers come from? From the supplement of paper PMC10567573.

Would you kindly list protein stability index for each of these variants?
B1: WEE1 (parent)
chain: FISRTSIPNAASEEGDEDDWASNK

- Variants of: B1
- protocol-notes: protein stability index of a GFP-peptide fusion (GPS, HEK-293T) (PSI 1-6); higher = more stable;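 also: lentivirally expressed fusions sorted by FACS into six bins by GFP to DsRed ratio, PSI derived from sequencing read proportions per bin multiplied by bin number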
- condition-set: c terminus: a fixed tail appended

Would you kindly share the measured protein stability index for FISRTSICNAASEEGDEDDWASNK [P8C] ? 3.18

Next record, please: FISRTSIPNAASEEGDEDDYASNK [W20Y] 4.23

Next record, please: FISRTSIPNAASEEGDEDDWCSNK [A21C] 4.1

Next record, please: FISRTSIPNAASEEGDEDDWASKK [N23K] 3.93

Next record, please: FISRTSIPNAASEEGAEDDWASNK [D16A] 3.72

Next record, please: FISRTSIPLAASEEGDEDDWASNK [N9L] 3.79

Next record, please: FISRTSIPNAASEEGDEDDWASNY [K24Y] 3.94

Next record, please: FISRTSIPNAASEEGDYDDWASNK [E17Y] 3.59

Next record, please: FISRTSIPNAASEEGDEDDWASNQ [K24Q] 4.46

Next record, please: FISRTSIPHAASEEGDEDDWASNK [N9H] 3.93

Next record, please: FISRTSIPNAASECGDEDDWASNK [E14C] 4.11

Next record, please: FISRTSIPNYASEEGDEDDWASNK [A10Y] 3.17

Next record, please: FISRTSIPNAASEEGDEADWASNK [D18A] 3.62

Next record, please: FISRTSIFNAASEEGDEDDWASNK [P8F] 3.19

Next record, please: FISRKSIPNAASEEGDEDDWASNK [T5K] 4.01

Next record, please: FISRTSIPNNASEEGDEDDWASNK [A10N] 3.86

Next record, please: FISRTSIPNAASEEGDNDDWASNK [E17N] 2.13

Next record, please: FISRTSIPNAANEEGDEDDWASNK [S12N] 4.07

Next record, please: FISRTSIPNEASEEGDEDDWASNK [A10E] 4.35

Next record, please: FISRTSIPNAASEEGDLDDWASNK [E17L] 3.11

Next record, please: FISRTSIMNAASEEGDEDDWASNK [P8M] 3.51

Next record, please: FISRTSIKNAASEEGDEDDWASNK [P8K] 4.12

Next record, please: FISRTSIPNAASEEGDEDDWAYNK [S22Y] 4.08

Next record, please: FIYRTSIPNAASEEGDEDDWASNK [S3Y] 3.37

Next record, please: FISRTSIPQAASEEGDEDDWASNK [N9Q] 4.28

Next record, please: FISRTSIPNAASEEGDEDDCASNK [W20C] 4.75

Next record, please: KISRTSIPNAASEEGDEDDWASNK [F1K] 5.42

Next record, please: FISRTSIPNAASWEGDEDDWASNK [E13W] 3.54

Next record, please: FISRTSIPNAASEEGDEGDWASNK [D18G] 3.55

Next record, please: FISRTSIPNAASEETDEDDWASNK [G15T] 4.17

Next record, please: FISRTSIPEAASEEGDEDDWASNK [N9E] 4.64

Next record, please: FISRTSIPNAASLEGDEDDWASNK [E13L] 3.5

Next record, please: FISRTSIPNAASEEGDEDVWASNK [D19V] 3.02

Next record, please: FISRTSIPYAASEEGDEDDWASNK [N9Y] 2.35

Next record, please: FIHRTSIPNAASEEGDEDDWASNK [S3H] 3.59

Next record, please: FISRTFIPNAASEEGDEDDWASNK [S6F] 1.83

Next record, please: FISRTSIPNAASEEGDEDDWAFNK [S22F] 3.96

Next record, please: FISRTSIENAASEEGDEDDWASNK [P8E] 3.82

Next record, please: FICRTSIPNAASEEGDEDDWASNK [S3C] 4.11

Next record, please: FISRTSIPNAASEEGDEDDGASNK [W20G] 4.52

Next record, please: WISRTSIPNAASEEGDEDDWASNK [F1W] 4.88

Next record, please: FISRTSIPNAASEEFDEDDWASNK [G15F] 3.83

Next record, please: FISRHSIPNAASEEGDEDDWASNK [T5H] 3.21

Next record, please: FPSRTSIPNAASEEGDEDDWASNK [I2P] 5.21

Next record, please: FHSRTSIPNAASEEGDEDDWASNK [I2H] 3.36

Next record, please: FISRTSIPNKASEEGDEDDWASNK [A10K] 3.65
